system: IGROV-1; assay: NCI tumour cell line growth inhibition, 48 h
Calls of active or inactive are those of the source. Cut-off read from the data, not from the text of the source: active = GI50 up to about 1.1 µM and inactive = higher.
Please provide measured GI50 for the entries that follow.

Quick note, GI50 for CC1=NC2=Nc3nc(C)cc[n+]3CN2C=C1 landed at 39.9 µM (inactive)

Quick note, GI50 for CC[N+]1(C)CCC(O)(/C=C/c2ccc(Cl)cc2)C(C(=O)/C=C/c2ccc(Cl)cc2)C1 (stereo unspecified) landed at 4.7 µM (inactive)

Quick note, GI50 for N#CN1CCC=C(c2cc3ccccc3[nH]2)C1 landed at 277 µM (inactive)

Quick note, GI50 for O=Cc1ccc2c(c1)CC1(C2)Cc2ccc(C=O)cc2C1 landed at 21.5 µM (inactive)

Quick note, GI50 for COc1ccc(C(=O)N2CCN(c3ccc4c(c3)OCC(=O)N4)CC2)cc1 landed at > 100 µM (inactive)

Quick note, GI50 for CC(=O)NC1(c2cc3ccccc3s2)CCCCCC1 landed at 66.4 µM (inactive)

====

tested on: COLO 205; assay: NCI tumour cell line growth inhibition, 48 h
Active and inactive are the calls of the source. Cut-off read from the data, not from the text of the source: active = GI50 up to about 1.1 µM and inactive = higher.
Parameter measured: GI50

Quick note, GI50 for c1ccc(C2=NOC3COc4ccccc4OCC23)cc1 (centres undefined) landed at > 100 µM (inactive)

Quick note, GI50 for Nc1cc(C(=O)O)nc(O)n1 landed at > 100 µM (inactive)

Quick note, GI50 for O=C(CO)CC(=O)C(=O)Nc1nc([N+](=O)[O-])cs1 landed at > 100 µM (inactive)

Quick note, GI50 for Cn1c(=O)c2c(ncn2CCNC(CO)C(O)c2ccc([N+](=O)[O-])cc2)n(C)c1=O (centres undefined) landed at > 100 µM (inactive)

Quick note, GI50 for CCOC(=O)c1c(N2CCCC2)nsc1Nc1ccc(F)cc1 landed at 48.5 µM (inactive)

Quick note, GI50 for COc1ccccc1/C=C1\SC(=S)N(/C=C2\C(=O)Oc3ccccc3C2=O)C1=O landed at 24 µM (inactive)

Quick note, GI50 for Cn1c(=O)c2nc(CCS)[nH]c2n(C)c1=O landed at > 100 µM (inactive)

Quick note, GI50 for Nc1nc(N)c2ncn(CCOC(c3ccccc3)P(=O)(O)O)c2n1 (centres undefined) landed at > 100 µM (inactive)

Quick note, GI50 for CC/C(C)=C1\OC(=O)C(C)C(O)C(Cc2cccnc2)NC(=O)C(NC(=O)c2ncccc2O)C(C)OC1=O (centres undefined) landed at > 100 µM (inactive)

====

test system: K562; assay: NCI tumour cell line growth inhibition, 48 h
Calls of active or inactive are those of the source. Cut-off read from the data, not from the text of the source: active = GI50 up to about 1.1 µM and inactive = higher.
Pick from active, inactive when you respond.

Query: What outcome does the record of this test show for COC(=O)C1c2cc3c(c(O)c2CCC1(C)O)C(=O)c1c(O)cc2c(c1C3=O)OC1OC2(C)C(O)C(N(C)C)C1O (centres undefined) ?
Response: active

Query: What outcome does the record of this test show for COc1cc(-c2ccc(/N=N/c3ccc4c(S(=O)(=O)O)cc(S(=O)(=O)O)c(N)c4c3O)c(OC)c2)ccc1/N=N/c1ccc2c(S(=O)(=O)O)cc(S(=O)(=O)O)c(N)c2c1O ?
Response: inactive

Query: What outcome does the record of this test show for CCOC(=O)c1c[nH]c(C(=O)C=[N+]=[N-])c1C1CCN(CC)C1=S (centres undefined) ?
Response: inactive

Query: What outcome does the record of this test show for COc1ccc(C(=O)c2c(-c3ccccc3NC(=O)C(F)(F)F)[nH]c3ccccc23)cc1 ?
Response: inactive

====

test system: EKVX; assay: NCI tumour cell line growth inhibition, 48 h
Active and inactive are the calls of the source. No stated cut-off is given here; in the data, active = GI50 up to about 1.1 µM and inactive = higher.
Please provide measured GI50 for the entries that follow.

Quick note, GI50 for O=C(O)[C@@H]1CCCC[C@@H]1C(=O)N(C1CCCCC1)C1CCCCC1 landed at > 100 µM (inactive)

Quick note, GI50 for NCCCN1CCN(CCCNc2ccc3ncn4c5ccccc5c(=O)c2c34)CC1 landed at 2.85 µM (inactive)

Quick note, GI50 for [O-][s+]1c2c(Cc3ccccc3)c(Cc3ccccc3)c1CCc1cccc(c1)CC2 landed at 13.2 µM (inactive)

Quick note, GI50 for Oc1ccc2ccccc2c1-c1c(Nc2ccccc2)ccc2ccccc12 landed at 16.9 µM (inactive)

Quick note, GI50 for C=CCO[C@]1(CC=C)C(=O)C(=O)OC1C1COC(C)(C)O1 (stereo not given in full) landed at > 100 µM (inactive)

====

system: DMS-114; experiment: NCI tumour cell line growth inhibition, 48 h
Activity calls are given as the source filed them. Cut-off read from the data, not from the text of the source: active = GI50 up to about 1.1 µM and inactive = higher.
Please provide measured GI50 for the entries that follow.

Quick note, GI50 for NNC(=O)N/N=C1/C(=O)N(c2ccc(Cl)c(Cl)c2)C(=O)C(=O)C1c1nc2ccccc2o1 (configuration not stated) landed at > 100 µM (inactive)

Quick note, GI50 for O=C1N2Cc3c4ccc5c3CN3C(=O)N6Cc7c(ccc(c7CN1C6(c1ccccc1)C23c1ccccc1)OCCOCCNCCOCCO4)OCCOCCNCCOCCO5 (configuration not stated) landed at > 100 µM (inactive)

Quick note, GI50 for C=CC1(C)/C(=N\O)C(C)(CC)C(=O)N1O (configuration not stated) landed at > 100 µM (inactive)

Quick note, GI50 for Cc1ccc2nc(/C(=C/c3ccc(/C=C(\NC(=O)c4ccccc4)c4nc5ccc(C)cc5[nH]4)c(C)c3)NC(=O)c3ccccc3)[nH]c2c1 landed at 7.57 µM (inactive)

Quick note, GI50 for N/C(=N\O)N/N=C\c1c(O)cc(O)cc1O landed at 44.2 µM (inactive)

Quick note, GI50 for CC1=C(c2cc(C(=O)Nc3cccc(C(F)(F)F)c3)ncn2)Sc2ccccc2N1 landed at > 100 µM (inactive)

Quick note, GI50 for Cc1cc(N(CCC#N)CCC#N)ccc1/N=N/c1ccc([N+](=O)[O-])cc1 landed at 19 µM (inactive)

====

system: NCI-H226; assay: NCI tumour cell line growth inhibition, 48 h
Active and inactive are the calls of the source. No stated cut-off is given here; in the data, active = GI50 up to about 1.1 µM and inactive = higher.
Pick from y = active, n = inactive when you respond.

Query: What outcome does the record of this test show for CC1(C)CC(=O)C(CC(C(=O)C(=O)Nc2cc(C(F)(F)F)ccc2Cl)C(=O)c2ccco2)C(=O)C1 (stereo unspecified) ?
Response: n

Query: What outcome does the record of this test show for COc1cc(-c2ccc(/N=N/c3ccc4c(S(=O)(=O)O)cc(S(=O)(=O)O)c(N)c4c3O)c(OC)c2)ccc1/N=N/c1ccc2c(S(=O)(=O)O)cc(S(=O)(=O)O)c(N)c2c1O ?
Response: n

Query: What outcome does the record of this test show for C#CCC[C@@H]1O[C@@]1(C)CC/C=C(\C)CC/C=C/C=O ?
Response: n

Query: What outcome does the record of this test show for Cc1cc(N(CCC#N)CCC#N)ccc1/N=N/c1ccc([N+](=O)[O-])cc1 ?
Response: n

Query: What outcome does the record of this test show for COc1ccc2nc3cccc([N+](=O)[O-])c3c(NCCN(C)C)c2c1 ?
Response: y

Query: What outcome does the record of this test show for Cn1c(=O)c2c(ncn2CCNC(CO)C(O)c2ccc([N+](=O)[O-])cc2)n(C)c1=O (stereo unspecified) ?
Response: n

====

system: SNB-19; test: NCI tumour cell line growth inhibition, 48 h
The source made the active and inactive calls. No stated cut-off is given here; in the data, active = GI50 up to about 1.1 µM and inactive = higher.
Pick from true for active, false for inactive when you respond.

Query: What outcome does the record of this test show for NC1(C(=O)O)CCC(C(=O)O)CC1 (configuration not stated) ?
Response: false

Query: What outcome does the record of this test show for CCOC(=O)c1c2c(n(Cc3ccccc3)c1C)C(=O)C(=O)c1ccccc1-2 ?
Response: true

Query: What outcome does the record of this test show for O=C1CC(c2ccc(Cl)cc2)C2(C(=O)NC(=S)NC2=O)C(c2ccc(Cl)cc2)C1 (configuration not stated) ?
Response: false

Query: What outcome does the record of this test show for Nc1nc2c(c(-c3cccc(Cl)c3)n1)COC/C2=C\c1cccc(Cl)c1 ?
Response: false

Query: What outcome does the record of this test show for Cc1cccc2c1C/C(=C1\CCc3c(C)cccc31)C2=O ?
Response: false

Query: What outcome does the record of this test show for C=CCNC(=O)N(CCCCC(NC(C)=O)C(=O)NCc1ccccc1)Cc1ccccc1 (configuration not stated) ?
Response: false

Query: What outcome does the record of this test show for C=CCO[C@]1(CC=C)C(=O)C(=O)OC1C1COC(C)(C)O1 (some centres not stated) ?
Response: false
